test_target: T1, RBFOX1 RRM RbFoxmut (Fox-RRM*) (Homo sapiens, UniProt Q9NWB1 109-208, R118D;E147R;N151S;E152T)
T1 sequence: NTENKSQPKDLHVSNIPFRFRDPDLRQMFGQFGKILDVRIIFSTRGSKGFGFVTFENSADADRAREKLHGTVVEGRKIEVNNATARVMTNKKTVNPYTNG
assay_details: EMSA; HiTS-Eq, 1 nM pool, 10 min; buffer printed only for the single-RNA assays: 10 mM Tris pH 7.5, 150 mM NaCl, 3.4 mM EDTA, 0.001% NP-40, 30 C
measurement_context: tags: His6 N-terminal (pET28a); label: 5' 32P
In all, about 16,000 sequences were measured (“ka relative to ugcaugu”: median about 0.096, highest 2% from about 0.35 on). What follows is part of a selection rich in the highest values, with near analogues and random picks from the rest.
measurement_type: binding signal

UCAGAUC (DNA:RNA) RNA: GGGAGACCGGAAUUCAGAUUGUCCUCAGAUCUUAAAUCCCGUCGUAGCCACCA DNA 1: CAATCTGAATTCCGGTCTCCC DNA 2: TGGTGGCTACGACGGGATT; 0.0785 KA relative to UGCAUGU
UCGCGCA (DNA:RNA) RNA: GGGAGACCGGAAUUCAGAUUGUCCUCGCGCAUUAAAUCCCGUCGUAGCCACCA DNA 1: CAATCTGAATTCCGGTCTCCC DNA 2: TGGTGGCTACGACGGGATT; 0.104 KA relative to UGCAUGU
UCGCAUG (DNA:RNA) RNA: GGGAGACCGGAAUUCAGAUUGUCCUCGCAUGUUAAAUCCCGUCGUAGCCACCA DNA 1: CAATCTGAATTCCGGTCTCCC DNA 2: TGGTGGCTACGACGGGATT; 1.06 KA relative to UGCAUGU
UGUUGUG (DNA:RNA) RNA: GGGAGACCGGAAUUCAGAUUGUCCUGUUGUGUUAAAUCCCGUCGUAGCCACCA DNA 1: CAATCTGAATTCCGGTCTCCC DNA 2: TGGTGGCTACGACGGGATT; 0.29 KA relative to UGCAUGU
CAGCUCU (DNA:RNA) RNA: GGGAGACCGGAAUUCAGAUUGUCCCAGCUCUUUAAAUCCCGUCGUAGCCACCA DNA 1: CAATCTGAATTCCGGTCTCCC DNA 2: TGGTGGCTACGACGGGATT; 0.0953 KA relative to UGCAUGU
UGUGUCG (DNA:RNA) RNA: GGGAGACCGGAAUUCAGAUUGUCCUGUGUCGUUAAAUCCCGUCGUAGCCACCA DNA 1: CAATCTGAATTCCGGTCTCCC DNA 2: TGGTGGCTACGACGGGATT; 0.253 KA relative to UGCAUGU

binding signal recorded for this binder, UGUAAUG (DNA:RNA) RNA: GGGAGACCGGAAUUCAGAUUGUCCUGUAAUGUUAAAUCCCGUCGUAGCCACCA DNA 1: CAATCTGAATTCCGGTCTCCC DNA 2: TGGTGGCTACGACGGGATT , is 0.381 KA relative to UGCAUGU

binding signal recorded for this binder, UGCAUAG (DNA:RNA) RNA: GGGAGACCGGAAUUCAGAUUGUCCUGCAUAGUUAAAUCCCGUCGUAGCCACCA DNA 1: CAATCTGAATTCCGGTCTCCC DNA 2: TGGTGGCTACGACGGGATT , is 0.146 KA relative to UGCAUGU

binding signal recorded for this binder, AGAGGUC (DNA:RNA) RNA: GGGAGACCGGAAUUCAGAUUGUCCAGAGGUCUUAAAUCCCGUCGUAGCCACCA DNA 1: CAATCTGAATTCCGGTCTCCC DNA 2: TGGTGGCTACGACGGGATT , is 0.108 KA relative to UGCAUGU

binding signal recorded for this binder, UGUAAUC (DNA:RNA) RNA: GGGAGACCGGAAUUCAGAUUGUCCUGUAAUCUUAAAUCCCGUCGUAGCCACCA DNA 1: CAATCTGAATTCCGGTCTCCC DNA 2: TGGTGGCTACGACGGGATT , is 0.157 KA relative to UGCAUGU

binding signal recorded for this binder, UGUGUUG (DNA:RNA) RNA: GGGAGACCGGAAUUCAGAUUGUCCUGUGUUGUUAAAUCCCGUCGUAGCCACCA DNA 1: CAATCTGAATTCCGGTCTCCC DNA 2: TGGTGGCTACGACGGGATT , is 0.383 KA relative to UGCAUGU

binding signal recorded for this binder, AUCUCCA (DNA:RNA) RNA: GGGAGACCGGAAUUCAGAUUGUCCAUCUCCAUUAAAUCCCGUCGUAGCCACCA DNA 1: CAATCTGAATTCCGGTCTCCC DNA 2: TGGTGGCTACGACGGGATT , is 0.0926 KA relative to UGCAUGU
